Molecular target: human serum albumin (HSA) (Homo sapiens (Human), UniProt P02768)
Sequence (P02768 25-609): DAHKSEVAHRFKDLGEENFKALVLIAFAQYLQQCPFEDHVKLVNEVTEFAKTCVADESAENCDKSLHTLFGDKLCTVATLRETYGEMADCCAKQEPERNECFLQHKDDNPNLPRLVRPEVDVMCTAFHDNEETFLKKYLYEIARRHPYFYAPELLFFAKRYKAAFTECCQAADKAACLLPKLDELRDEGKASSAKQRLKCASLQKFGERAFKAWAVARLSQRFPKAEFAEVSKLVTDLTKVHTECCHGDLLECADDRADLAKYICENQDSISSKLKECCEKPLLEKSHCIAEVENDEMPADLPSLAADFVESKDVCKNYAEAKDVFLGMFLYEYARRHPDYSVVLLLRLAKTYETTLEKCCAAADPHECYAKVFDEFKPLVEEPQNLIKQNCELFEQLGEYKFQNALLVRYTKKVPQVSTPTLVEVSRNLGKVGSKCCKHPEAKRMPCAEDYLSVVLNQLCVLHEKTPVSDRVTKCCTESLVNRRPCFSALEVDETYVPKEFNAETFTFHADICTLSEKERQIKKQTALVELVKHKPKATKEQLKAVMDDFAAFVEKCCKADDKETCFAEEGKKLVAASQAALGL
Assay: Protein binding to human serum albumin (HSA-Transil)
Conditions: buffer pH 7.4
MEASUREMENT NAME: pKd
Numbers only, as −log10 of the molar value.

Here's what some known entries look like.
CO[C@]1(C(F)(F)F)CC[C@]2(CC1)NC(=O)C(c1cc(-c3ccc(Cl)cc3)ccc1C)=C2O [Example 1-1]
5.76
Cc1ccc(-c2ccc(Cl)cc2)cc1C1=C(O)[C@]2(CC[C@H](C(F)(F)F)CC2)NC1=O [V.1-b]
5.51

Kindly consider the entry below.
Give measured pKd for COC[C@]1(OC)CC[C@@]2(CC1)NC(=O)C(c1cc(-c3ccc(Cl)c(F)c3)ccc1C)=C2O [Example 1-4] (human serum albumin (HSA) (Homo sapiens (Human), UniProt P02768)).
5.55

###

Experiment: Prediction of human pharmacokinetic parameters and human therapeutic dosage (single species scaling from rat)
Details: human, plasma; from mouse dosage 80 mg/kg 2 × per day; read-out: calc. AUC (human)
MEASUREMENT NAME: AUC (µg·h/mL)
Give bare numbers, in µg·h/mL.

CO[C@]1(C(F)(F)F)CC[C@]2(CC1)NC(=O)C(c1cc(-c3ccc(Cl)c(F)c3)ccc1C)=C2O
842
CO[C@]1(C(F)(F)F)CC[C@]2(CC1)NC(=O)C(c1cc(-c3ccc(Cl)cc3)ccc1C)=C2O
1160

Now for the compound whose AUC we want.
Annotate the compound `COC[C@]1(OC)CC[C@@]2(CC1)NC(=O)C(c1cc(-c3ccc(Cl)c(F)c3)ccc1C)=C2O` with its measured AUC.
4130

###

Assignment: determine reported IC50 for the given compounds.
Tested on: H460
Assay: Tumour cell proliferation, CellTiter-Glo, 96 h
Type: cell-based
Conditions: 96-hour incubation
Give bare numbers, in nM.

CO[C@]1(C)CC[C@]2(CC1)NC(=O)C(c1cc(-c3ccc(Cl)c(F)c3)ccc1C)=C2O
82

// next entry
Give reported IC50 value for `CO[C@]1(C)CC[C@]2(CC1)NC(=O)C(c1cc(-c3ccc(Cl)cc3)ccc1C)=C2O`
79

###

Would you kindly list clearance for each of these molecules?
Assay: Prediction of human pharmacokinetic parameters and human therapeutic dosage (single species scaling from rat)
Conditions: human, plasma; predicted (fu-corrected) from rat PK; read-out: pred. CL (human) (converted)
One number for each entry, in mL/h/kg.

Sample records with clearance:
CO[C@]1(C(F)(F)F)CC[C@]2(CC1)NC(=O)C(c1cc(-c3ccc(Cl)c(F)c3)ccc1C)=C2O
9
CO[C@]1(C(F)(F)F)CC[C@]2(CC1)NC(=O)C(c1cc(-c3ccc(Cl)cc3)ccc1C)=C2O
2

Could you now look at the following molecule, please?
Return the recorded clearance value; entry: `COC[C@]1(OC)CC[C@@]2(CC1)NC(=O)C(c1cc(-c3ccc(Cl)c(F)c3)ccc1C)=C2O`
3

###

Test: Prediction of human pharmacokinetic parameters and human therapeutic dosage (single species scaling from rat)
Settings: human, plasma; from mouse dosage 40 mg/kg 2 × per day; read-out: calc. AUC (human)
MEASUREMENT NAME: AUC (µg·h/mL)
Numbers only, in µg·h/mL.

Give recorded AUC. CO[C@]1(C(F)(F)F)CC[C@]2(CC1)NC(=O)C(c1cc(-c3ccc(Cl)c(F)c3)ccc1C)=C2O [Example 1-2]
355
